tested on: LOX IMVI melanoma; experiment: NCI-60 one-dose screen, 48 h; settings: 10 µM unless noted
The panel holds about 83,000 compounds, 20% with a hit somewhere; the sample as a whole holds those more often. Activity calls are given as the source filed them. The calls were made as follows: active = growth percent below 10; inactive = the rest.
Answer with one of the outcomes given here: active, inactive

Per the assay record, what outcome was assigned to Cc1sc2nc(N3CCCCC3)[nH]c(=O)c2c1C ?
inactive

Per the assay record, what outcome was assigned to CC(=O)Nc1c(Cl)cc2c(c1Cl)Cc1ccccc1-2 ?
inactive

Per the assay record, what outcome was assigned to CCOC(=O)Nc1ccc2c3c(cccc13)-c1ccccc1-2 ?
inactive

Per the assay record, what outcome was assigned to COc1ccc2c(=O)c(OC)c(-c3cc(OC)c(OC)c(OC)c3)oc2c1 ?
inactive

Per the assay record, what outcome was assigned to CCOC(=O)CCN(c1c(Cl)ssc1=O)C(C)C ?
inactive

Per the assay record, what outcome was assigned to CC(=O)[C@H]1CC[C@H]2[C@@H]3C[C@H](C)C4=CC(=O)CC[C@]4(C)[C@H]3C(=O)C[C@]12C ?
inactive

Per the assay record, what outcome was assigned to O=CNc1ccc2c(c1)Cc1cc([N+](=O)[O-])ccc1-2 ?
inactive

Per the assay record, what outcome was assigned to Cc1cnc2nc(-c3ccc(N(C)C)cc3)cn2c1 ?
inactive

Per the assay record, what outcome was assigned to N#Cc1ccc(-c2csc(Nc3ccc4nc5n(c(=O)c4c3)CCC5)n2)cc1 ?
inactive

Per the assay record, what outcome was assigned to COc1ccc(NC(=O)[C@@H]2C[C@H]2c2ccccc2)c(C(N)=O)c1 ?
inactive

Per the assay record, what outcome was assigned to O=C(C(=O)c1cc(Br)ccc1O)c1cc(Br)ccc1O ?
inactive

Per the assay record, what outcome was assigned to Cc1ccc(N/N=C(/C(=O)c2ccc(Cl)cc2)c2nc(C)cc(=O)[nH]2)cc1 ?
inactive

Per the assay record, what outcome was assigned to O=C1CSC(c2ccccc2Cl)N1c1nnc(Cn2nnc3ccccc32)o1 (stereo unspecified) ?
inactive

Per the assay record, what outcome was assigned to CCSc1ncc(Br)c(Sc2nc(N)nc3nc[nH]c23)n1 ?
inactive

Per the assay record, what outcome was assigned to COc1cc(/C=C/C(=O)c2c(C)n([O-])c3ccc(Cl)cc3[n+]2=O)cc(OC)c1OC ?
inactive

Per the assay record, what outcome was assigned to COC(=O)[C@H](Cc1cn(C)cn1)NC(=O)[C@H](Cc1ccccc1)NC(=O)Nc1cc(C(F)(F)F)cc(C(F)(F)F)c1 ?
active

Per the assay record, what outcome was assigned to O=C(O)c1ccc2cccnc2c1O ?
active

Per the assay record, what outcome was assigned to COC(=O)C1=CCC(n2cnc3c(N)ncnc32)O1 (stereo unspecified) ?
inactive

Per the assay record, what outcome was assigned to O=C1c2cccc3c([N+](=O)[O-])ccc(c23)C(=O)N1CCCCl ?
active

Per the assay record, what outcome was assigned to CC(=O)Nc1ccc(C(=O)COc2ccc(/C=C3\CCc4ccccc4C3=O)cc2)cc1 ?
inactive

Per the assay record, what outcome was assigned to COc1ccc(C2CC(c3ccc4c(c3)OCO4)=NN2C=O)cc1 (stereo unspecified) ?
inactive

Per the assay record, what outcome was assigned to CN(C)CCCN=c1cc2c(=O)n(CCCN(C)C)c(=O)c3c(NCCCN(C)C)cc4c(O)n(CCCN(C)C)c(=O)c1c4c3-2 ?
active

Per the assay record, what outcome was assigned to C=CCNC(=O)/C(=C/c1cccc([N+](=O)[O-])c1)NC(=O)c1ccccc1 ?
inactive

Per the assay record, what outcome was assigned to Nc1nc(Nc2ccccc2SSc2ccccc2Nc2nc(N)nc(C(Cl)(Cl)Cl)n2)nc(C(Cl)(Cl)Cl)n1 ?
active

Per the assay record, what outcome was assigned to COc1cc(C(=O)/C=C/c2cccc(Nc3ccnc4cc(Cl)ccc34)c2)cc(OC)c1OC ?
active

Per the assay record, what outcome was assigned to CSc1nc(-c2ccc(O)cc2O)c2c(=O)[nH]c(Nc3ccc(S(=O)(=O)Nc4nc(C)cc(C)n4)cc3)nc2n1 ?
inactive

Per the assay record, what outcome was assigned to Oc1ccc(/C=N/Nc2nc3ccccc3s2)c(O)c1 ?
inactive

Per the assay record, what outcome was assigned to NC(=O)c1cc(Br)cc(Br)c1NS(=O)(=O)c1ccccc1 ?
inactive

Per the assay record, what outcome was assigned to CCOC(=O)c1sc(NC(=O)COc2cccc(/C=C3\Cc4ccc(Cl)cc4C3=O)c2)nc1C ?
inactive

Per the assay record, what outcome was assigned to CC(=O)N1N=C(c2ccc(C(F)(F)F)cc2)CC1c1ccc2c(c1)OCO2 (stereo unspecified) ?
inactive

Per the assay record, what outcome was assigned to COc1c(O)cc2c(c1CC=C(C)C)OC(=O)c1c(cc(O)c(CC=C(C)C)c1O)O2 ?
active

Per the assay record, what outcome was assigned to C/C=C(/C(=C/C)c1ccc(O)cc1)c1ccc(O)cc1 ?
inactive

Per the assay record, what outcome was assigned to O=Cc1ccccc1C(=O)O ?
inactive

Per the assay record, what outcome was assigned to O=c1c2ccccc2c2nccn2c2cc(Cl)ccc12 ?
inactive

Per the assay record, what outcome was assigned to CCOC(=O)C(Br)=P(c1ccccc1)(c1ccccc1)c1ccccc1 ?
inactive

Per the assay record, what outcome was assigned to CCN(CC)CCOCC[C@H]1CC[C@H]2[C@@H]3[C@H](C)Cc4cc(OS(N)(=O)=O)ccc4[C@H]3CC[C@]12C ?
active

Per the assay record, what outcome was assigned to O=C1OC(Oc2ccccc2)(c2ccccc2)c2ccccc21 (stereo unspecified) ?
inactive

Per the assay record, what outcome was assigned to O=C1CNc2cc(Cl)ccc2N1 ?
inactive

Per the assay record, what outcome was assigned to CC(C)CC1NC(=O)C(CCCN)NC(=O)C(C(C)C)NC(=O)C2CCCN2C(=O)C(Cc2ccccc2)NC(=O)C(CC(C)C)NC(=O)C(CCCN)NC(=O)C(C(C)C)NC(=O)C2CCCN2C(=O)C(Cc2ccccc2)NC1=O (stereo unspecified) ?
active

Per the assay record, what outcome was assigned to O=C(COc1ccc(/C=C2\Oc3ccc4ccccc4c3C2=O)cc1)c1ccc(Cl)cc1 ?
inactive

Per the assay record, what outcome was assigned to FC(F)(F)c1cc(-c2nnc3n2N=C(N2CCCC2)CS3)cc(C(F)(F)F)c1 ?
inactive
